System: HOP-62 NSCLC
test_protocol: NCI tumour cell line growth inhibition, 48 h; in the data active = GI50 below about 0.43 µM; inactive = the rest
Respond only with the outcome that fits, drawn from yes (1) (active), no (0) (inactive)

Hey, what did the test say about CO[C@@H]1/C=C\C=C(/C)C(=O)NC2=CC(=O)C(NCCN(C)C)=C(C[C@@H](C)C[C@@H](OC)[C@@H](O)[C@H](C)/C=C(\C)[C@H]1OC(N)=O)C2=O ?
yes (1)

// return assay outcome for O=c1c2cc(Cl)ccc2oc2ccc(OCCCCCN3CCCCC3)cc12
no (0)

Could you kindly confirm the outcome this assay logged for CSc1ccc(C2=NN(C(=O)c3ccc(F)cc3)C(c3ccc(F)cc3)C2)cc1 (stereo not given) ?
no (0)

Can you look up the reported call for CC(=O)[O-].CC(=O)[O-].[Pt+2].c1cscn1.c1cscn1 for me?
no (0)

Others:
Please state the recorded outcome for this compound: CCOC(=O)c1cc(C#N)c(=O)n(/N=C(\C)c2ccncc2)c1O
no (0)

====

System: PC-3 prostate
test_protocol: NCI tumour cell line growth inhibition, 48 h
outcome_measure: TGI (µM)
# number only, unit µM dropped from output

Notebook: CC1=C2[C@@H](CC1)[C@]1(C)O[C@@](C3CCCCC3)(C[C@H]1OC(=O)CO)[C@H]2OC(=O)/C=C/c1ccccc1 , TGI read as 21.2

The compound listed as COc1ccc([N+](=O)[O-])c2c(NCCCN(C)C)c3ccccc3nc12 shows TGI equal to 0.372

For reference, reported TGI for O=c1[nH]c(C23CC4CC(CC(C4)C2)C3)cc2c1c(=O)oc1ccccc12 stands at 10.5

Now for another entry.
# TGI (compound: COc1ccc2nc3c([N+](=O)[O-])ccc4c3c(c2c1)N=CN4CCCN(C)C ) is 13

====

Test system: RPMI-8226 leukemia
test_protocol: NCI tumour cell line growth inhibition, 48 h
outcome_measure: GI50

Sample CCOC(=O)C(N)C[S][Sn]([CH3])([CH3])[Cl] (stereo not given) , system: RPMI-8226 leukemia. Its GI50 is > 84.9 µM

RPMI-8226 leukemia GI50 of O=c1ccn(C2OC(CO)C(O)C2F)c(=O)[nH]1 (stereo not given) is > 1000 µM

Summary: O=[N+]([O-])c1cc(Cl)c(Cl)c([N+](=O)[O-])c1Cl , RPMI-8226 leukemia, GI50 = 0.422 µM

// assay RPMI-8226 leukemia, entry CC(=O)[O-].CC(=O)[O-].[Pt+2].c1cscn1.c1cscn1 , GI50 value = 57.7 µM

For the molecule CC(C)c1ccc(C(=O)Nc2nc3ccc(O)cc3s2)cc1 , the measured GI50 on RPMI-8226 leukemia was 2.74 µM

***
Readout GI50 for CCOC(=O)c1cc(C#N)c(=O)n(/N=C(\C)c2ccncc2)c1O , test system RPMI-8226 leukemia, was > 100 µM

I looked up O=C(/C=C/c1ccc(F)cc1)c1ccc(Cl)cc1Cl and its GI50 for RPMI-8226 leukemia was 17.5 µM

Summary: C=C1C(=O)O[C@H]2[C@H]1CC/C(CNC(=O)c1cc3cc(OC)ccc3[nH]1)=C\CC[C@@]1(C)O[C@@H]21 , RPMI-8226 leukemia, GI50 = 1.58 µM

GI50 of COc1cc(OC)c(/C=C/S(=O)(=O)Cc2cnc(OC)c(N)c2)c(OC)c1 , assay on RPMI-8226 leukemia, is < 0.0206 µM

Kindly note: RPMI-8226 leukemia, O=S(=O)(NC1=NCCN1C(=S)SN1CCn2c1nsc2=S)c1ccc(Br)cc1 , GI50 value reported: 1.86 µM

Entry COc1cc2c(cc1OCCCOc1cc3c(cc1OC)C(=O)N1C[C@H](F)C[C@H]1C=N3)N=C[C@@H]1C[C@@H](F)CN1C2=O , tested on RPMI-8226 leukemia, has a reported GI50 of 2.01 µM

Hey, just so you know, these numbers are from PubChem BioAssay (NCI).
